Tgt: Carboanhydrase IX (Homo sapiens, UniProt Q16790 38-459)
Assay Method Text: cell-based or functional assay
Observation Type: MIAPaCa 2/CA9+ IC50 (nM)
State just the number; it will be interpreted in nM.

Example 302 (antibody, human IgG1, kappa, V domains shown, linker-toxophore on cysteine S) VH: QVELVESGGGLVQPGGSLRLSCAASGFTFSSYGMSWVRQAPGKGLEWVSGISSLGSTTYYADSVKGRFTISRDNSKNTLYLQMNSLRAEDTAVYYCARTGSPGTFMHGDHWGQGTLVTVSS VL: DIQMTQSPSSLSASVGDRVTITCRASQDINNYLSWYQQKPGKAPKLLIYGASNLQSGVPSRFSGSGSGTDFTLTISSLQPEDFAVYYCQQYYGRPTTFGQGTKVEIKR yielded MIAPaCa 2/CA9+ IC50 of 3.9

Recorded MIAPaCa 2/CA9+ IC50 (binder Example 292 (antibody, human IgG1, kappa, V domains shown, linker-toxophore on cysteine S) VH: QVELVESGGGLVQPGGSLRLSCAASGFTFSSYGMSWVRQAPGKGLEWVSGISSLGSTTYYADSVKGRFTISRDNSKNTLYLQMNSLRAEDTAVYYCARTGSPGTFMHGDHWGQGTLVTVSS VL: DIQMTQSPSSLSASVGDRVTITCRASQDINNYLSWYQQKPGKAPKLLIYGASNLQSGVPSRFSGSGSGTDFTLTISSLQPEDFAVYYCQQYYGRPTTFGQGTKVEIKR ): 35

Example 326 (antibody, human IgG1, kappa, V domains shown, linker-toxophore on lysine NH) VH: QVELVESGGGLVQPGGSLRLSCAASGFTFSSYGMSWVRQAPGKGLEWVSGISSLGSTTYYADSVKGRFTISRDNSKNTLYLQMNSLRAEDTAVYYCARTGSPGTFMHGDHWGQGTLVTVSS VL: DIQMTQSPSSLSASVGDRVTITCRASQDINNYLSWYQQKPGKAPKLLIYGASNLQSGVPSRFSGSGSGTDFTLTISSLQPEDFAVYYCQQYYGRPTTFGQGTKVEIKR has a reported MIAPaCa 2/CA9+ IC50 of 2
